- Tgt: T1, CD22 on cynomolgus monkey peripheral blood B cells (cynomolgus monkey (Macaca fascicularis))
- T1 construct: whole, on cells; also called cynomolgus monkey B cells
- Protocol Notes: FACS, cynomolgus PBMC, CD20+ B cells, antibody 10 nM
Recorded Metric: Proportion of chimeric antibody positive cells to B cells (%)
Give your result in % as a bare value.

>>> measured_number("F1.120.15 (antibody, human IgG1, kappa, V domains shown, human-murine chimeric IgG1 kappa) VH: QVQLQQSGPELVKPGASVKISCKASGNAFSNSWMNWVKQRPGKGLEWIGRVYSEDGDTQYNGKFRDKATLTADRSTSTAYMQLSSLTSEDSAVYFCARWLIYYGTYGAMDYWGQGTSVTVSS VL: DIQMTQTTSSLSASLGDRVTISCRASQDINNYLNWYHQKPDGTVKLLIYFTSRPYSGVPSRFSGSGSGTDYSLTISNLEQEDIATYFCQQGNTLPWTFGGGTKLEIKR")
86
>>> measured_number("F1.245.2 (antibody, human IgG1, kappa, V domains shown, human-murine chimeric IgG1 kappa) VH: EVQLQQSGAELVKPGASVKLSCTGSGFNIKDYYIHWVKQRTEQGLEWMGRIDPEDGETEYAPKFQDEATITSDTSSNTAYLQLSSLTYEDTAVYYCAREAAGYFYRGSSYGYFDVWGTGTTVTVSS VL: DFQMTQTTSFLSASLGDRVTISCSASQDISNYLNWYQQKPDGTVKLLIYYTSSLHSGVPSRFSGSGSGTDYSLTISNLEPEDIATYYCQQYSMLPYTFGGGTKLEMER")
17
>>> measured_number("F1.17.1 (antibody, human IgG1, kappa, V domains shown, human-murine chimeric IgG1 kappa) VH: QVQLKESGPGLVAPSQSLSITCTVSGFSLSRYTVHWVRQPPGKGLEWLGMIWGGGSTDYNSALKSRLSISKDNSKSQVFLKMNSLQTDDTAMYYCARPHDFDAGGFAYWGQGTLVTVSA VL: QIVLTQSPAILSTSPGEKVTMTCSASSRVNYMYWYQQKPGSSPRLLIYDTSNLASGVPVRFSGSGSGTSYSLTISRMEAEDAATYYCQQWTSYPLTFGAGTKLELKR")
62
>>> measured_number("F2.55.1 (antibody, human IgG1, lambda, V domains shown, human-murine chimeric IgG1 lambda; VL name legible) VH: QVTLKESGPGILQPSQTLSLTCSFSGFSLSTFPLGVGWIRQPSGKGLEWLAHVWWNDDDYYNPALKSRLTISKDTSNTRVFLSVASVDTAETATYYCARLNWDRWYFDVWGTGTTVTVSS VL: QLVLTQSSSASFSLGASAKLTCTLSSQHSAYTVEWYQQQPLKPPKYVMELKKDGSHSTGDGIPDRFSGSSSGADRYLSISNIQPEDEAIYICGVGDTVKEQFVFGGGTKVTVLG")
28

Prompt: Read the entry F2.173.9 (antibody, human IgG1, lambda, V domains shown, human-murine chimeric IgG1 lambda) VH: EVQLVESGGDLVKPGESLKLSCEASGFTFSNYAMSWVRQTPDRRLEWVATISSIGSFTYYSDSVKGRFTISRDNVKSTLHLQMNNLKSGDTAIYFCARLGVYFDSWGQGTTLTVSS VL: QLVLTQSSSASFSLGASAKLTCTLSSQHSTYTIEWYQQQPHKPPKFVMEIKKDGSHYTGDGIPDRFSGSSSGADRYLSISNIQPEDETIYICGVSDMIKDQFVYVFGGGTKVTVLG and write its reported Proportion of chimeric antibody positive cells to B cells (%).
Response: 43
